The origin of these recorded values is PubChem BioAssay (NCI).

The following molecules are listed with their measured GI50 values.
Test system: T-47D breast
PROCEDURE_DETAILS: NCI tumour cell line growth inhibition, 48 h
MEASURED_ENDPOINT: GI50

* CC(C)=C[C@@H]1C[C@H](C)[C@H]2CC[C@H](C)C3=C2[C@](O)(OC3=O)[C@]1(C)O | > 100000 nM
* O=[N+]([O-])c1ccc(C=C2C(Cl)=C(Cl)C(Cl)=C2Cl)cc1 | 2160 nM
* C/C(=C\CCc1ccoc1)CC/C=C(\C)CCCC1=CC(=O)OC1 | 2270 nM
* C=C(F)C(=O)N1CCN(c2nc(OC[C@@H]3CCCN3C)nc3c2CCN(c2cccc4cccc(Cl)c24)C3)C[C@@H]1CC#N | 1240 nM
* CNCCCn1cc(C2=C(c3cn(C)c4ccccc34)C(=O)NC2=O)c2ccccc21 | 5660 nM
* CCN1CCN(c2ccc(Nc3cc(N(C)C(=O)Nc4c(Cl)c(OC)cc(OC)c4Cl)ncn3)cc2)CC1 | 2510 nM
* O=C1NC(=Nc2ccccc2)S/C1=C\c1ccc2ncccc2c1 | 12300 nM
* C=CC1CC12C(=O)C1OC2(C)C2C(=O)c3cc4ccccc4cc3C(=O)C12 (stereo not given) | 23100 nM
* OCCN1CN(CCO)CN(c2nc(N3CN(CCO)CN(CCO)C3)nc(N3CN(CCO)CN(CCO)C3)n2)C1 | 1.06 ng/mL
* CC1OC2CC(=O)OC2C2=C1C(=O)c1c(O)cccc1C2=O (stereo not given) | 106 nM
